// data source = ChEMBL document CHEMBL1156829

- System: Plasmodium falciparum
- procedure_text: NOVARTIS: Inhibition of Plasmodium falciparum 3D7 (drug-susceptible) proliferation in erythrocyte-based infection assay
- Assay type: functional, organism-based
- measurement_context: Plasmodium falciparum, 3D7
pEC50: −log10 of the molar value.
Class MET: pEC50 at least 6. Class NOT MET: pEC50 below 6.

Ask | Is it the case that Cc1ccc(NC(c2ccccc2)(c2ccccc2)c2ccccc2)cc1C has pEC50 reaching or exceeding 6?
Reply | MET

Ask | In plain terms: is recorded pEC50 at least 6 for CCc1n(C)c2ccccc2[n+]1CC(=O)c1ccc(Br)cc1 ?
Reply | NOT MET

====

- procedure_text: NOVARTIS: Cytotoxicity against human hepatocellular carcinoma cell line (Huh7)
- Format: toxicity, cell-based, Huh-7
- measurement_context: Huh7 cells (hepatocellular carcinoma cell line)
quantity_name: CC50

Ask | Fill in the blank: the reported CC50 of CCOC(=O)c1cnc2ccc(OC)cc2c1NCc1cccs1 is ____.
Reply | > 100 µM

Ask | Any idea what CC50 was measured for CCn1cc(C(=O)N2CCC(C(=O)c3nccs3)CC2)c(C)n1 ?
Reply | > 10 µM

Ask | I would be grateful if you could share the reported CC50 for CCOc1cccc(Nc2cc(C)nc3ncnn23)c1 .
Reply | > 100 µM

Ask | I'd like to know its CC50. The compound in question is COc1ccccc1N(CC(=O)N1CCCCC1)S(=O)(=O)c1ccccc1
Reply | > 10 µM

Ask | I am curious: what CC50 value has been reported for Cc1cccc(NC(=O)C2C3C=CC4(O3)C2C(=O)N(CC2COc3ccccc3O2)C4C(=O)NC2CCCC(C)C2C)c1 (centres undefined) ?
Reply | > 100 µM

Ask | Quick one: CC50 of COc1ccc(/C=C2\SC(=Nc3ccccc3OC)NC2=O)cc1 ?
Reply | > 10 µM

Ask | Reported CC50 for CC(C)(C)NC(=O)C(c1ccc(F)cc1)N(CCCN1CCOCC1)C(=O)c1ccc(-c2ccccc2)[nH]1 (centres undefined) : what is it?
Reply | > 10 µM

Ask | Given the entry CCn1c2cc(C)sc2c2cnn(CC(=O)Nc3c(C)nn(C)c3C)c(=O)c21 , report its measured CC50.
Reply | > 10 µM

Ask | // CC50 lookup, key: CN1CCN(C(=S)NC(=O)/C=C/c2ccc(F)cc2)CC1
Reply | > 10 µM

Ask | Can you look up the measured CC50 of CN1C=CC=CC1=CC=C1C=Nc2ccccc21 for me?
Reply | 20.9 µM

Ask | Look at this compound and give its reported CC50. CC(C)N(CC(=O)Nc1cc(C(C)(C)C)nn1-c1ccc(Cl)c(Cl)c1)C(=O)c1ccc2ccccc2c1
Reply | > 100 µM

Ask | What value of measured CC50 is listed for CCOC(=O)C1=C(CC)NC2=C(C(=O)CCC2)C1c1ccc(N(C)C)cc1 (centres undefined) ?
Reply | > 100 µM

Ask | CC50 for Cc1ccc2nc(Cl)c3cc(C(=O)Nc4ccc(CN5CCC(C)CC5)cc4)sc3c2c1 ?
Reply | > 75.8 µM

Ask | Which value of CC50 has been reported for CCC1CCCCN1S(=O)(=O)c1cc(Br)cc2c1N(C(=O)C1CC1)CC2 (centres undefined) in the records?
Reply | > 100 µM

Ask | What value of CC50 has been recorded for this entry: Cc1cccc(NC(=O)c2ccc(NCCCC3CCCCCC3)c([N+](=O)[O-])c2)c1
Reply | 18.8 µM

Ask | Which measured CC50 value corresponds to c1ccc(N=c2sc(-c3ccccc3)cn2CCCCCCn2cc(-c3ccccc3)sc2=Nc2ccccc2)cc1 ?
Reply | > 10 µM

Ask | Any idea what CC50 was measured for CCOC(=O)c1c(NC(=O)c2ccc([N+](=O)[O-])cc2[N+](=O)[O-])sc2c1CCCC2 ?
Reply | > 100 µM

Ask | Fill in: CC50 of C[n+]1cccc(C=C2c3ccccc3-c3ncccc32)c1 is ___
Reply | > 100 µM

Ask | Which CC50 value is on record for COC(=O)C1=C(O)/C(=C\c2cc(C)n(-c3ccccc3F)c2C)N=C1C ?
Reply | > 10 µM

Ask | Give its CC50 value. Item: CC(C)c1ccc(NC(=O)c2ccc(NCCCN3CCN(c4cccc(Cl)c4)CC3)c([N+](=O)[O-])c2)cc1
Reply | > 100 µM

Ask | Sample CCOc1ccc2[nH]c(=O)c(C(c3nnnn3CCOC)N3CCCC3)cc2c1 (centres undefined) — what was its CC50?
Reply | > 100 µM

Ask | Which CC50 is listed for CC(C)CNc1nc(NCCCN2CCCC2)ncc1C(=O)NCc1ccccc1 ?
Reply | > 10 µM

Ask | Would you mind telling me what CC50 value was observed for CC(C)CC(NC(=O)C(=Cc1ccco1)NC(=O)c1ccccc1)C(=O)OCc1ccccc1 (centres undefined) ?
Reply | > 100 µM

Ask | Which measured CC50 value corresponds to N#Cc1cc2nc3c(nc2cc1C#N)-c1ccccc1C3=O ?
Reply | 33.2 µM

Ask | What does the data say about its CC50? Entry: O=C(N/C(=C/C=C/c1ccccc1)C(=O)N1CCOCC1)c1ccccc1
Reply | > 10 µM

Ask | Which CC50 is listed for COc1ccc(-c2cc(-c3ccc(C)cc3)[nH]n2)c(O)c1 ?
Reply | 25.6 µM

Ask | Please report the recorded CC50 for CC1CCCCN1CCCNc1ncc(C(=O)NCc2ccccc2)c(NCCc2ccccc2)n1 (centres undefined) .
Reply | > 10 µM

Ask | Sample N#Cc1ccc(-c2cnc(N)c(-c3ccc(C(N)=O)cc3)n2)cc1 — what was its CC50?
Reply | > 100 µM

Ask | Any idea what its CC50 is? The compound is COc1ccc(/C=C2/SC(=N)N(c3ccccc3OC)C2=O)cc1
Reply | > 10 µM

Ask | Please give the measured CC50 for this compound: COc1cc(OC)cc(N2CCN(CCNCCOc3ccccc3)[C@@H](c3ccccc3)C2)c1
Reply | > 10 µM

Ask | Give its CC50 value. Item: CCCCCCc1ccc(C(=O)N(CC(=O)Nc2cc(C(C)(C)C)nn2-c2ccc(Cl)c(Cl)c2)C(C)C)cc1
Reply | > 10 µM

Ask | For the compound COc1ccc(C=NNc2nc3cc(Cl)ccc3[nH]2)cc1OC , what CC50 is on record?
Reply | > 89.8 µM

Ask | Which CC50 is reported for this compound? COc1ccc2nc(C)cc(Nc3cccc(Cl)c3)c2c1
Reply | 50.2 µM

Ask | Looking for the measured CC50 of COC(=O)C1=C(C)NC2=C(C(=O)CC(c3ccc(OC)cc3)C2)C1c1ccccc1F (centres undefined) , can you help?
Reply | > 100 µM

Ask | Please report the recorded CC50 for CC(C)CN1C(=O)c2ccccc2C(C(=O)Nc2ccc(C(C)C)cc2)C1c1cccs1 (centres undefined) .
Reply | > 100 µM

Ask | Look up CC50: C[n+]1c(/C=C\c2ccc(F)cc2)ccc2ccccc21
Reply | > 10 µM

Ask | Please report the recorded CC50 for COc1ccc(/C=C2/SC(=Nc3ccccc3)NC2=O)cc1 .
Reply | > 100 µM

Ask | Item under review: CC(C)Cc1ccc(/C=C/C(=O)NC2CC2)cc1 . Reported CC50?
Reply | > 10 µM

Ask | Any idea what its CC50 is? The compound is OC1=C2C(=Nc3ccccc3SC2c2ccco2)c2ccccc21 (centres undefined)
Reply | 55.3 µM
